src = PubChem BioAssay AID1918995

System: 324938-238-R-J1-PDC complex spheroid growth, % test/control;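 further: spheroids exposed to agents for seven days before viability read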
Assay: Anticancer human tumor 324938-238-R-J1-PDC patient-derived bladder carcinoma cell line growth inhibition [AhR]
Conditions: curve of first compound; second compound 10 µM
readout.kind: log10 of IC50 (log10 of the value in nM)
Values are log10 of IC50 in nM.

Example compounds with recorded log10 of IC50:
>>> reported_value("Nc1ncn(C2CC(O)C(CO)S2)c(=O)n1 (configuration not stated) + Cc1ccccc1N=Nc1ccc(NC(=O)c2ccnn2C)c(C)c1")
2.47
>>> reported_value("Nc1ccn(C2OC(CO)C(O)C2(F)F)c(=O)n1 (configuration not stated) + CC(CO)NC(=O)c1cc(-c2ccc(Cl)cc2)nn(-c2cnn(C)c2)c1=O")
1.59

Batch request: log10 of IC50 for each of the following compounds.
1. CC(C)CC(NC(=O)C(Cc1ccccc1)NC(=O)c1cnccn1)B(O)O (configuration not stated) + Cc1ccccc1N=Nc1ccc(NC(=O)c2ccnn2C)c(C)c1
2. Nc1ccccc1NC(=O)c1ccc(CNC(=O)OCc2cccnc2)cc1 + Cc1ccccc1N=Nc1ccc(NC(=O)c2ccnn2C)c(C)c1
3. CC1COCCN1c1cc(C2(S(C)(=N)=O)CC2)nc(-c2ccnc3[nH]ccc23)n1 (configuration not stated) + Cc1ccccc1N=Nc1ccc(NC(=O)c2ccnn2C)c(C)c1

Response given:
0.65
3.49
3.71
